Data provenance: patent US20130224224A1

# assayed.system: T1, human CX3CR1 (human, UniProt P49238 1-355)
# T1 construct: overexpressed on CHO, BA/F3 or HEK293T cells; also called huCX3CR1; hCX3CR1
# T1 sequence: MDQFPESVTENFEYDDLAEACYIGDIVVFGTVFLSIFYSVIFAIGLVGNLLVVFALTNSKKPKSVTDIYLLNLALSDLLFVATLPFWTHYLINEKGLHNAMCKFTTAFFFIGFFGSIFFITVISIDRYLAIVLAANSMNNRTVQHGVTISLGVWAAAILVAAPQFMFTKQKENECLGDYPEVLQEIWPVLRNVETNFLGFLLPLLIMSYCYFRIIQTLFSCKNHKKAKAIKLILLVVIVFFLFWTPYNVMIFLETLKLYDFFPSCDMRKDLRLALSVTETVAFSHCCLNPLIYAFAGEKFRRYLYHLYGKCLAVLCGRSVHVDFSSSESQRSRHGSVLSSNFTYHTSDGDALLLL
# protocol.text: fractalkine competition FACS
readout.label: IC50 (nM)
The reply should be a number in nM, with the unit left off.

[ask] Which IC50 value belongs to CX3CR1BII66B02 (N52T, Q108L) (VHH, name in Kabat numbering, Kabat numbering) VHH: EVQLVESGGGSVQAGESLRLSCAASGSIFSSNAMAWYRQAPGKRRDLVAAITSVGVTKYADSVKGRFTISRDNAKNTVYLQMNSLKPEDTAVYYCTSDPRRGWDTRYWGQGTLVTVSS ?
[reply] 2.8

[ask] Entry CX3CR1BII66B02 (N52Q, Q108L) (VHH, name in Kabat numbering, Kabat numbering) VHH: EVQLVESGGGSVQAGESLRLSCAASGSIFSSNAMAWYRQAPGKRRDLVAAIQSVGVTKYADSVKGRFTISRDNAKNTVYLQMNSLKPEDTAVYYCTSDPRRGWDTRYWGQGTLVTVSS : reported IC50 = ?
[reply] 2.1

[ask] Bench note: what IC50 did CX3CR1BII66B02 (S53P, Q108L) (VHH, name in Kabat numbering, Kabat numbering) VHH: EVQLVESGGGSVQAGESLRLSCAASGSIFSSNAMAWYRQAPGKRRDLVAAINPVGVTKYADSVKGRFTISRDNAKNTVYLQMNSLKPEDTAVYYCTSDPRRGWDTRYWGQGTLVTVSS show?
[reply] 0.8

[ask] Given the entry CX3CR1BII66B02 (S53G, Q108L) (VHH, name in Kabat numbering, Kabat numbering) VHH: EVQLVESGGGSVQAGESLRLSCAASGSIFSSNAMAWYRQAPGKRRDLVAAINGVGVTKYADSVKGRFTISRDNAKNTVYLQMNSLKPEDTAVYYCTSDPRRGWDTRYWGQGTLVTVSS , report its measured IC50.
[reply] 1.2

[ask] What does the record list as IC50 for CX3CR1BIIPMP66B02 (VHH, alexa647 label where used as labeled competitor (Table 23), also called CX3CR1BII66B02; C100CX3CR1BII66B02; not shown: C-terminal c-myc and His6 tags) VHH: EVQLVESGGGSVQAGESLRLSCAASGSIFSSNAMAWYRQAPGKRRDLVAAINSVGVTKYADSVKGRFTISRDNAKNTVYLQMNSLKPEDTAVYYCTSDPRRGWDTRYWGQGTQVTVSS ?
[reply] 2.5

[ask] # IC50 lookup, item CX3CR1BII66B02 (N52G, Q108L) (VHH, name in Kabat numbering, Kabat numbering) VHH: EVQLVESGGGSVQAGESLRLSCAASGSIFSSNAMAWYRQAPGKRRDLVAAIGSVGVTKYADSVKGRFTISRDNAKNTVYLQMNSLKPEDTAVYYCTSDPRRGWDTRYWGQGTLVTVSS
[reply] 1.1

[ask] Could you tell me which IC50 is on file for CX3CR1BII66B02 (N52S, Q108L) (VHH, name in Kabat numbering) VHH: EVQLVESGGGSVQAGESLRLSCAASGSIFSSNAMAWYRQAPGKRRDLVAAISSVGVTKYADSVKGRFTISRDNAKNTVYLQMNSLKPEDTAVYYCTSDPRRGWDTRYWGQGTLVTVSS ?
[reply] 1.7

Continuing:
[ask] IC50 lookup needed for CX3CR1BII66B02 (S53T, Q108L) (VHH, name in Kabat numbering, Kabat numbering) VHH: EVQLVESGGGSVQAGESLRLSCAASGSIFSSNAMAWYRQAPGKRRDLVAAINTVGVTKYADSVKGRFTISRDNAKNTVYLQMNSLKPEDTAVYYCTSDPRRGWDTRYWGQGTLVTVSS , thanks.
[reply] 1.3
